# Response per entry
- studySystem: T1, biotinylated recombinant human IL-12Rβ2 (human, UniProt Q99665 24-622, random biotinylated)
- T1 construct: Recombinant protein produced in-house; also called hIL-12RB2; human IL-12RB2
- T1 sequence: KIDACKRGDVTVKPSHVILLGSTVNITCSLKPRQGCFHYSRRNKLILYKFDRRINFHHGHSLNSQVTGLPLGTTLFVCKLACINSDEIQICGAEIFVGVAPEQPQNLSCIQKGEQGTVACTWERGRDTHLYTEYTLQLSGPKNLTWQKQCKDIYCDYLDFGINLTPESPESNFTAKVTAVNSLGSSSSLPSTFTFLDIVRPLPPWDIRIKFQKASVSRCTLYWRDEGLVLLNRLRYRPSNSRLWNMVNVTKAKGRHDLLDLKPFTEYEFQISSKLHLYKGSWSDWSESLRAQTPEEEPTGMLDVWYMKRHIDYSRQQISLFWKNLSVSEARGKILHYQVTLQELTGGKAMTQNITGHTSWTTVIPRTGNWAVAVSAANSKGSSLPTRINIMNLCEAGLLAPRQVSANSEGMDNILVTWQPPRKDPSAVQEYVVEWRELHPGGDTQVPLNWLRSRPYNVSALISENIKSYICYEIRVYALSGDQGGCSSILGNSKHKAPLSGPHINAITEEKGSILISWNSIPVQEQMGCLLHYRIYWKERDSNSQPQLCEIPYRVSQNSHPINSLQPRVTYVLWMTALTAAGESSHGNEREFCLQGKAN
- protocolSummary: BLI, P.E., off-rate ranking
Please give the numeric answer without any surrounding text.

Solved entries:
anti-IL-12Rβ2 VHH clone 3CAH28 (clone ID 20356) (VHH, not shown: small tags and cut ends, periplasmic extract) VHH: QVQLQESGGGLVQSGASLRLSCAASERTLSGYAMGWFRQAPGKEREFVAAIRWSGSSTYYAESVEGRFTISRDNAKNTVYLQMNILKPEDTAVYYCAAGSDYADEYDYWGQGTQVTVSS	0.576
anti-IL-12Rβ2 VHH clone 3CRHS99 (clone ID 20427) (VHH, not shown: small tags and cut ends, periplasmic extract) VHH: QVQLQESGGGLVQPGGSLRLSCKASGFTFSTYAMSWVRQAPGKGLEWVSAINSGGLSTDYADSVEGRFTISRDDAKNMLFLQMNSLKAEDTARYYCAKYEDCSDYMCHRDRAGYWGQGTQVTVSS	0.259
anti-IL-12Rβ2 VHH clone 3CAHS171 (clone ID 20407) (VHH, not shown: small tags and cut ends, periplasmic extract) VHH: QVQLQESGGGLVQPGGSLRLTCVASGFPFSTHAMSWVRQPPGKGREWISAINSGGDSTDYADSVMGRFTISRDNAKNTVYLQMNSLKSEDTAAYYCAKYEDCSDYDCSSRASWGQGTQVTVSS	0.195
anti-IL-12Rβ2 VHH clone 3CRHS67 (clone ID 20424) (VHH, not shown: small tags and cut ends, periplasmic extract) VHH: QVQLQESGGGLVQAGGSLTLSCVSSQTLVGIEAMGWYRQAPGKQRELVALITLNGGTFYADSVKGRFTISRDVAEHMLYLEMNSLNPEDTAVYFCVAGVESDNEEPTYWGQGTQVTVSS	0.416
anti-IL-12Rβ2 VHH clone 2CRH53 (clone ID 20366) (VHH, not shown: small tags and cut ends, periplasmic extract) VHH: QVQLQESGGGLVQAGGSLVLSCAASGSAALIFLMSWYRQAPGKQRELVAEVSRYGSTTYADSVEGRFTISRDNAKDIVDLQMNSLKPEDTAVYYCKADQYYGDSLRSSWGRGTQVTVSS	0.652
anti-IL-12Rβ2 VHH clone 3CAHM11 (clone ID 21050) (VHH, not shown: small tags and cut ends, periplasmic extract) VHH: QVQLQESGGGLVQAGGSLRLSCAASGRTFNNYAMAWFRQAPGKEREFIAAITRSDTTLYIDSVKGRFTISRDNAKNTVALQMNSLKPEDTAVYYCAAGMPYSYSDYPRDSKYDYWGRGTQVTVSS	1.4
anti-IL-12Rβ2 VHH clone 3CRHS128 (clone ID 20432) (VHH, not shown: small tags and cut ends, periplasmic extract) VHH: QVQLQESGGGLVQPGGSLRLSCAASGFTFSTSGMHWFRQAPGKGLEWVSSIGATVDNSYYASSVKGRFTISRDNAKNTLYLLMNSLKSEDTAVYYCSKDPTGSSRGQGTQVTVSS	0.294
anti-IL-12Rβ2 VHH clone 3CAHS79 (clone ID 20398) (VHH, not shown: small tags and cut ends, periplasmic extract) VHH: QVQLQESGGGLVQPGGSLRLTCVASGFPFSTHAMSWVRQPPGKGREWISAINSGGDSTDYADSVMGRFTISRDNAKNTVYLQMNSLKSEDTAVYYCAKYEDCSDYDCSSRASWGQGTQVTVSS	0.268
anti-IL-12Rβ2 VHH clone 3CRHS184 (clone ID 20441) (VHH, not shown: small tags and cut ends, periplasmic extract) VHH: QVQLQESGGGLVQAGGSLVLSCAASGSAALIFLMSWYRQAPGKQRELVAEVSRYGSTTYADSVEGRFTISRDNAKNIVDLQMNSLKPEDTAVYYCKADQYYGDSLRSSWGRGTQLTVSS	0.515
anti-IL-12Rβ2 VHH clone 3CAHS43 (clone ID 20395) (VHH, not shown: small tags and cut ends, periplasmic extract) VHH: QVQLQESGGGSVQAGGSLRLSCAASGRTINAYIMGWFRQAPGKEREFVAAVSGSGGSTYYADSVKGRFTISRDNAKNTVNLQMDNLRSEDTDVYYCAATYESVYLRNPGQYDYWGQGTQVTVSS	0.605

### Prompt Data request, read-out Response, for anti-IL-12Rβ2 VHH clone 2CRH33 (clone ID 20363) (VHH, not shown: small tags and cut ends, periplasmic extract) VHH: QVQLQESGGGSVQPGWSLRLTCAASGFTFSTSGMHWFRQAPGKGLEWVSSISSGGGDTYYTDSVKGRITISRDNAKNTLYLQLNDLKSEDTAVYYCSKDPSGATRGQGTQVTVSS
### Response 0.621

### Prompt Try anti-IL-12Rβ2 VHH clone 3CRH45 (clone ID 20383) (VHH, not shown: small tags and cut ends, periplasmic extract) VHH: QVQLQESGGGLVQPGGSLRLSCAASGFTFSTFGMHWFRQAPGKGLEWVSSIGIIDDNSYYASSVKGRFTISRDNAKNTLYLQMNSLKSEDTAVYYCSKDTTGSSRGQGTQVTVSS next.
### Response 0.427

### Prompt Try anti-IL-12Rβ2 VHH clone 3CAHS39 (clone ID 20393) (VHH, not shown: small tags and cut ends, periplasmic extract) VHH: QVQLQESGGGLVQAGGSLRLSCAASGRTINAYIMGWFRQAPGKEREFVAAVSGSGGSTYYADSVKGRFTISRDNAKNTVNLQMDNLRSEDTDVYYCAATYESVYLQNPGQYDYWGQGTQVTVSS next.
### Response 0.612

### Prompt Try anti-IL-12Rβ2 VHH clone 3CRHS9 (clone ID 20415) (VHH, not shown: small tags and cut ends, periplasmic extract) VHH: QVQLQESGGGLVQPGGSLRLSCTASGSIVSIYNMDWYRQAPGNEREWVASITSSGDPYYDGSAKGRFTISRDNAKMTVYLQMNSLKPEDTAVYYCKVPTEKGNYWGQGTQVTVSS next.
### Response 0.222

### Prompt Try anti-IL-12Rβ2 VHH clone 3CRH59 (clone ID 20385) (VHH, not shown: small tags and cut ends, periplasmic extract) VHH: QVQLQESGGGLVQPGGSLRLSCTASGFAFSSYWMYWVRQTPGKGFEWVSVVNPGGEITYYGDSMEDRFTISRDNAKNTLYLQMNSLKPEDTGLYYCARDRTTIDYTRTYYRGGQGTQVTVSS next.
### Response 0.487
